Target: DNA polymerase kappa (Homo sapiens) (UniProt Q9UBT6)
Sequence (Q9UBT6 whole entry, looked up): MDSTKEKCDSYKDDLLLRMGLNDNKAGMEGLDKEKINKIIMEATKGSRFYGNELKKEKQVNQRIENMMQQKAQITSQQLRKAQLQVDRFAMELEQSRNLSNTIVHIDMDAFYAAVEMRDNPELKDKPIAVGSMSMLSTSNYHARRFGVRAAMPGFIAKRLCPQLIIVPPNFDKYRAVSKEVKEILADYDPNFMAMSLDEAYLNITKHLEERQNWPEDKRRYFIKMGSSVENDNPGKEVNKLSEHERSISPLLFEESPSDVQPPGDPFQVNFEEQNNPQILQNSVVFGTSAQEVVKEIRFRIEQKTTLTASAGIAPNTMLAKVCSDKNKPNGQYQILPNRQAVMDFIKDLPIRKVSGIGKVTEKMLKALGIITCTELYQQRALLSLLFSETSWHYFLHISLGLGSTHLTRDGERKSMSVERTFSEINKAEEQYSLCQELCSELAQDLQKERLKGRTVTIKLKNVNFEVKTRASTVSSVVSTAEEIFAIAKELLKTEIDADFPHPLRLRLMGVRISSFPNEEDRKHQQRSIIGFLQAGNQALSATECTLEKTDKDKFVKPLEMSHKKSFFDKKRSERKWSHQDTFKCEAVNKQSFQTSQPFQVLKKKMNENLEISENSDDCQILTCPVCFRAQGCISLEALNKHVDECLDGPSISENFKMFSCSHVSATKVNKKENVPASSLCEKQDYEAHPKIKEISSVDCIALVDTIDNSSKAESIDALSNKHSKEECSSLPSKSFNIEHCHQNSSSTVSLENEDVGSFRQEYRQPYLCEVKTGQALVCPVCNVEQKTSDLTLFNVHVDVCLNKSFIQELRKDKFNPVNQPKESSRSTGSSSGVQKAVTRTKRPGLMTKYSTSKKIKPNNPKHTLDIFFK
Assay: qHTS for Inhibitors of Polymerase Kappa
Details: purified Pol kappa, fluorescent DNA synthesis assay, 10 min; series mostly up to 107 µM
Excerpt: The processing and repair of DNA interstrand crosslinks (ICL) in eukaryotic cells are extremely complex, potentially involving multiple DNA repair and damage tolerance pathways, including homologous recombination, nucleotide excision repair, translesion synthesis (TLS), and cell cycle checkpoints. To that end, in a collaboration between the Oregon Health & Science University and the NIH Chemical Genomics Center a 1536-well high-throughput screen was developed. […]
The whole screen tested about 400,000 compounds, of which about 2,200 (0.55%) were called active. Another 1% or so got no clear call; they are omitted. Calls come from the whole dose curve; as a rule, active = well fitted inhibition curve with a large enough effect; inconclusive = small, poorly fitted or top-dose-only effect, or another doubt; inactive = no such curve, though single readings can be large or run the other way. Many of the other results were omitted from the sample, so actives are more common in it than they were.
Assign a class; possible classes are yes (1) (active), no (0) (inactive)

INSERT INTO measurements (molecule, assay_system, assigned_category) VALUES
  ('O=C(c1csnn1)N1CCC[C@@]2(CCN(c3cccc(-c4ccccc4)c3)C2)C1', 'DNA polymerase kappa (Homo sapiens) (UniProt Q9UBT6)', 'no (0)');

Field: outcome | Entry: "Cc1noc2ncnc(NCc3ccccc3Cl)c12" no (0)

Hi team, can someone confirm the assay call for "COc1ccc(-c2cc(C(=O)NCc3cc(OC)c(OC)c(OC)c3)[nH]n2)cc1" ? no (0)

Dear colleague, could you share the recorded outcome for "Nc1ccc2nc3c(=O)[nH]c(=S)[nH]c3nc2c1" when you have a moment? yes (1)

###

target: DNA polymerase kappa (Homo sapiens); experiment: qHTS for Inhibitors of Polymerase Kappa; conditions: purified Pol kappa, fluorescent DNA synthesis assay, 10 min; series mostly up to 107 µM; note: potency is the fitted concentration of half-maximal effect
Hit rate of the full screen: of about 400,000 compounds, about 2,200 (0.55%) were called active. Not shown: some 1% with an inconclusive outcome. The entries come from a sample that favours actives as a whole.
QUANTITY: Potency

The cases that follow already have their Potency on record.
INSERT INTO results (compound, assay_system, quantity, readout_value) VALUES
  ('Nc1ncnc2c1c(I)cn2[C@@H]1C[C@H](N)[C@@H](O)[C@H]1O', 'DNA polymerase kappa (Homo sapiens)', 'Potency', 'inactive'),
  ('COc1ccc(C2=Nn3c(nnc3-c3ccccc3OC)SC2)cc1OC1CCCC1', 'DNA polymerase kappa (Homo sapiens)', 'Potency', '39.8 µM (active)'),
  ('CC[C@H](C)[C@H](NC(=O)[C@H](CCCNC(=N)N)NC(=O)[C@H](CCCNC(=N)N)NC(=O)[C@H](CC(C)C)NC(=O)[C@H](Cc1ccccc1)NC(=O)CNC(=O)CNC(=O)[C@@H](N)Cc1ccc(O)cc1)C(=O)N[C@@H](CCCNC(=N)N)C(=O)N1CCC[C@H]1C(=O)N[C@@H](CCCCN)C(=O)N[C@@H](CC(C)C)C(=O)N[C@@H](CCCCN)C(=O)N[C@@H](Cc1c[nH]c2ccccc12)C(=O)N[C@@H](CC(=O)O)C(=O)N[C@@H](CC(N)=O)C(=O)N[C@@H](CCC(N)=O)C(=O)O', 'DNA polymerase kappa (Homo sapiens)', 'Potency', 'inactive'),
  ('O=C(CSc1nc2ccccc2c(=O)[nH]1)Nc1nc(-c2ccc(Br)cc2)cs1', 'DNA polymerase kappa (Homo sapiens)', 'Potency', '20 µM (active)'),
  ('O=[N+]([O-])c1cccc(/C([O-])=C(/C(=S)Nc2ccccc2F)[n+]2ccccc2)c1', 'DNA polymerase kappa (Homo sapiens)', 'Potency', 'inactive'),
  ('C=C(C)C(=O)Nc1cccc(C2=NOC3(C2)C[C@H](C(N)=O)N(C(=O)C(c2ccccc2)c2ccccc2)C3)c1 (stereo partly drawn)', 'DNA polymerase kappa (Homo sapiens)', 'Potency', '25.1 µM (active)');

Alright, here's another compound for you.
So what does the record say about Potency for "COc1cccc(-c2cc(=O)c3cc(NC(=O)c4ccc(C)cc4)ccc3[nH]2)c1" ? inactive
